- target: T1, DENV-1 nonstructural protein 1 (NS1), recombinant (dengue virus serotype 1 (DENV-1))
- T1 chain: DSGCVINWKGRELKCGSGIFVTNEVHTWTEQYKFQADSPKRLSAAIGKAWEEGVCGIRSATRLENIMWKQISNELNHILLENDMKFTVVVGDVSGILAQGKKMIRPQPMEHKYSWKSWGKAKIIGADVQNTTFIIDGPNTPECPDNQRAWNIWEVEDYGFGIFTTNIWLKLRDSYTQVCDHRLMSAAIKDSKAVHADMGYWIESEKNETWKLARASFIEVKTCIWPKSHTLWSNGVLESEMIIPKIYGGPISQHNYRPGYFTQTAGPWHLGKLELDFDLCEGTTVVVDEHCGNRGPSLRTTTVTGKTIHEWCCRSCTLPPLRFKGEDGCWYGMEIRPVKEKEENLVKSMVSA
- protocol: SPR; sdAb immobilized
property-label: koff (s⁻¹)
Numbers only, in s⁻¹.

Observe how each entry below is paired with its result.
binder: sdAb DC7 (VHH, source: E. coli Turner (DE3), pET22b, periplasmic, purified (Ni-Sepharose, SEC)) VHH: EVQLQASGGGSVQAGGSLRLSCAHSSITVPDYTIGWYRRAPGKGGEEVSLISMHGGRTWYAGSVKGRFAISRDSVKNTVYLQMNNLKPEDTDIYYCGGTTFGLAAAPNEYDSWGQGSQVTVSS
unit-info: s⁻¹
koff: 0.00021
//
binder: sdAb DD5 (VHH, source: E. coli Turner (DE3), pET22b, periplasmic, purified (Ni-Sepharose, SEC)) VHH: EVQLQASGGGLVQAGGSLRLSCAASGRAFSSETMGWFRQAPGKEREFVAAIWRIGGSTYNTDYADSVKGRFAISADRAKNTVDLQMNTLKPEDTAVYYCAGKMRGRSVNLYDYDYWGQGTQVTVSS
unit-info: s⁻¹
koff: 0.000318

Dear reader, for each entry below, please note its koff.
1. sdAb DD1 (VHH, source: E. coli Turner (DE3), pET22b, periplasmic, purified (Ni-Sepharose, SEC)) VHH: EVQLQASGGGLVQAGGSLRVSCAATGIAFASYAVAWYRQAPGKQREWVATVGGLGGTKYVDSVKGRFTISRDNAKNAVTLQMNSLKPEDTAVYYCAAVEWDDGHYYWDTWGQGTRVTVSA
2. sdAb DD7 (VHH, source: E. coli Turner (DE3), pET22b, periplasmic, purified (Ni-Sepharose, SEC)) VHH: EVQLVQSGGGSVQAGGSLRLSCAHSSITVPDYTIGWFRRAPGKGGEEVSLISMHGGRSWYAGSVKGRFAISRDSVKNTVYLQMNNLKPEDTDIYYCGGTTFGLAAAPNEYDSWGQGSQVTVSS

0.000206
0.000423

Quick one: koff of sdAb DD9 (VHH, source: E. coli Turner (DE3), pET22b, periplasmic, purified (Ni-Sepharose, SEC)) VHH: EVQLQASGGGLVQAGGSLRVSCAASGIAFTNYALAWYRQPPGKQREWVATVGVLGGTKYADSVKGRFAISRDNAKNTVILQMNSLKPVDTAVYFCAAVEWSNGRYYWDSWGQGTQVTVSA ?
0.000289

Attribution: paper PMC6308234
